This collection of values is drawn from PubChem BioAssay AID1845205.

Tested on: MPNST multicellular tumor spheroids, viability % test/control
Assay: Anticancer human tumor MPNST cell line growth inhibition;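 note: luminescence signal used as surrogate for viable cell amount; spheroids exposed to agents for seven days after three days of growth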
Details: second compound 31.6 µM; first compound 0.3 µM; active compounds read low
quantity_name: viability, T/C (%)
Give the number; % is assumed, so skip it.

Cc1sc2c(c1C)C(c1ccc(Cl)cc1)=NC(CC(=O)Nc1ccc(O)cc1)c1nnc(C)n1-2 (centres undefined) + Cn1nnc2c(C(N)=O)ncn2c1=O
60

Please look up its viability, T/C: Cn1ncnc1[C@H]1c2n[nH]c(=O)c3cc(F)cc(c23)N[C@@H]1c1ccc(F)cc1 + Cn1nnc2c(C(N)=O)ncn2c1=O
48.9

Please look up its viability, T/C: O=C(c1cc(Cc2n[nH]c(=O)c3ccccc23)ccc1F)N1CCN(C(=O)C2CC2)CC1 + Cn1nnc2c(C(N)=O)ncn2c1=O
107

Please look up its viability, T/C: CNCc1ccc(-c2cc(-c3nc(-c4ccc(S(=O)(=O)C(C)C)cc4)cnc3N)on2)cc1 + Cn1nnc2c(C(N)=O)ncn2c1=O
66.6
